# Tested on: K562 (human chronic myelocytic leukemia)
# protocol-summary: Alamar Blue cytotoxicity assay, K562
# Assay type: cell-based
# test-parameters: 72 h incubation, value in brackets
pIC50: −log10 of the molar value.
Lab note: compare pIC50 against 5. Equal or greater, write label 1. Smaller, write label 0.

These solved cases illustrate the format of a correct answer.
{"molecule": "COc1ccc2c(c1)C(=O)c1nccc3cc4c(c-2c13)OCO4", "group-label": "label 0"}
{"molecule": "COc1cc2c(cc1O)CCN1Cc3cc(OC)c(OC)cc3C[C@@H]21 [(+)-Discretine, (+)-discretine]", "group-label": "label 0"}
{"molecule": "COc1cc2c(cc1OC)-c1c(OC)c(OC)cc3ccnc(c13)C2=O", "group-label": "label 0"}
{"molecule": "COc1cccc2c1C(=O)c1c(O)c3c(c(O)c1C2=O)C[C@@](O)(C(=O)CO)C[C@@H]3O[C@H]1C[C@H](N)[C@H](O)[C@H](C)O1 [Doxorubicin, doxorubicin, reference compound]", "group-label": "label 1"}

--- query ---
Identify whether the reported pIC50 of the following molecule is 5 or greater: COc1cc2c(cc1OC)-c1c(OC)c(OC)c(OC)c3c1C(C2)NCC3 (single isomer, unassigned; (+)) [(+)-Norpurpureine, (+)-norpurpureine] label 0
